The values you see were collected from ChEMBL document CHEMBL1140553.

Test system: CCRF-CEM
EXPERIMENT_NOTES: Cytostatic activity against human CEM cells
Format: functional, cell-based
pIC50: −log10 of the molar value.
Label Satisfied when pIC50 is at or above 4; otherwise label Not satisfied.

CCCCCCCCc1cn([C@@H]2O[C@H](CO)[C@@H](O)[C@H]2O)nn1
Satisfied
CC(O)c1cn([C@@H]2O[C@H](CO)[C@@H](O)[C@H]2O)nn1 (stereo partly drawn)
Not satisfied
OC[C@H]1O[C@@H](n2cc(-c3ccccn3)nn2)[C@H](O)[C@@H]1O
Not satisfied
OC[C@H]1O[C@@H](n2cc(-c3ccc(F)cc3)nn2)[C@H](O)[C@@H]1O
Not satisfied
OCc1cn([C@@H]2O[C@H](CO)[C@@H](O)[C@H]2O)nn1
Not satisfied

Incoming: // inclusive: pIC50 at least 4? input: CCCCCCc1cn([C@@H]2O[C@H](CO)[C@@H](O)[C@H]2O)nn1
Outgoing: Not satisfied

Incoming: hey, is pIC50 for this one >= 4? COc1ccc(-c2cn([C@@H]3O[C@H](CO)[C@@H](O)[C@H]3O)nn2)cc1
Outgoing: Satisfied

Incoming: Kindly determine if pIC50 recorded for OC[C@H]1O[C@@H](n2cc(-c3ccsc3)nn2)[C@H](O)[C@@H]1O is above or exactly 4.
Outgoing: Not satisfied
